The reported numbers originate from patent US8993618B2.

Experiment Summary: MTT cytotoxicity assay, MCF 7
Condition Details: human, MCF 7 breast cancer cells, IC50 cytotoxicity MCF 7, MTT
Outcome Measure: IC50 at 3 days (µg/mL)
Number in µg/mL, nothing else.

input: Returns the measured IC50 at 3 days for the input molecule. Input: COc1cc(C=O)ccc1O (single isomer, unassigned)
output: 15.7

---

Tested on: influenza A virus (H1N1)
Experiment Summary: microbe, parasite or virus in culture
Format: cell-based
Condition Details: Influenza A virus, H1N1, 72 h; MDCK cells, XTT, 3 days; read-out: IC90, influenza A (H1N1) antiviral activity
Reported IC90 values follow for various compounds
Write it as a number; the unit µg/mL goes unstated.

>>> df
                                   compound  outcome_measure  value_observed
0  COC(=O)CC[C@H]1C(=C(C)C)CC[C@H](C)[C@]1(C)COc1ccc2ccc(=O)oc2c1 [Compound 7, methyl galbanate]             IC90            0.44

input: Any idea what IC90 came out for CC(C)=C1CC[C@H](C)[C@](C)(COc2ccc3ccc(=O)oc3c2)[C@H]1CCC(=O)O [Compound 8, galbanic acid] on influenza A virus (H1N1)?
output: 0.88

input: Entry CC1=CC[C@@H]2C(C)(C)[C@@H](O)CC[C@@]2(C)[C@@H]1COc1ccc2ccc(=O)oc2c1 [Compound 11, conferol] , system influenza A virus (H1N1): what IC90 was measured?
output: 0.83

input: Please tell me: IC90 of CC(=O)O[C@H](CC/C(C)=C/CC/C(C)=C/COc1ccc2ccc(=O)oc2c1)C(C)(C)O [Compound 2, 10′R-Acetoxy-11′-hydroxyumbelliprenin] , system influenza A virus (H1N1)?
output: 1.98
